Reported values of melting point for individual entries

Use these answered entries as a reference point.
Incoming: What measured melting point goes with COc1ccc2c(C#N)c(-c3ncc(S(=O)(=O)NC(CF)CF)cn3)n(C3CCCC3)c2c1 ?
Outgoing: 232 to 234 °C

Incoming: Moving on to CC(C)NS(=O)(=O)c1ccc(-c2c(C#N)c3ccc(OC(F)F)cc3n2CC2CC2)nc1
Outgoing: 154 to 156 °C

Incoming: Moving on to C[C@H](NS(=O)(=O)c1ccc(-c2cc3cc(F)c(O)cc3n2C2CCC2)nc1)C(F)(F)F
Outgoing: 193 to 195 °C

Incoming: Moving on to Cc1cc2c(C#N)c(-c3ccc(S(=O)(=O)N[C@@H](C)C(F)(F)F)cn3)n(C3CCCC3)c2cc1F
Outgoing: 219 to 223 °C

Incoming: Moving on to Cc1cc2c(cc1F)c(C#N)c(-c1ncc(S(=O)(=O)N[C@@H](C)C(F)(F)F)cc1C)n2-c1ccccn1
Outgoing: 197 to 202 °C

Incoming: Moving on to N#Cc1c(-c2ccc(S(=O)(=O)NC(CF)CF)cn2)n(C2CCC2)c2cc(Cl)c(F)cc12
Outgoing: 211 to 213 °C

***
Incoming: What measured melting point goes with CCc1cc2c(cc1F)c(C(N)=O)c(-c1ccc(NS(=O)(=O)C(C)(C)C)nc1)n2[C@@H](C)C1CC1 ?
Outgoing: 256 to 259 °C

====

Reported values of melting point for individual entries

Use these answered entries as a reference point.
Incoming: What measured melting point goes with CCc1cc2c(cc1F)c(C#N)c(-c1ccc(S(=O)(=O)N[C@@H](C)C(F)(F)F)cn1)n2-c1cccc(F)c1 ?
Outgoing: 210 to 214 °C

Incoming: Moving on to C[C@H](NS(=O)(=O)c1ccc(-c2c(C#N)c3ccc(C(F)F)cc3n2C2CCC2)nc1)C1CC1
Outgoing: 182 to 189 °C

Incoming: Moving on to C[C@@H](NS(=O)(=O)c1ccc(-c2c(C#N)c3ccc(F)cc3n2C2CCCC2)nc1)C(F)(F)F
Outgoing: 141 to 144 °C

Incoming: Moving on to CC(C)NS(=O)(=O)c1cnc(-c2c(C#N)c3cc(F)ccc3n2C(C)C)nc1
Outgoing: 192 to 197 °C

Incoming: Moving on to C[C@H](NS(=O)(=O)c1ccc(-c2c(C#N)c3cc(F)ccc3n2C2CCCC2)nc1)C1CC1
Outgoing: 159 to 160 °C

***
Incoming: What measured melting point goes with CC(C)NS(=O)(=O)c1cnc(-c2c(C#N)c3ccc(OC(F)F)cc3n2C(C)C)nc1 ?
Outgoing: 193 to 196 °C

Incoming: Moving on to Cc1c(F)cc2c(c1F)c(C#N)c(-c1ccc(S(=O)(=O)NC(CF)CF)cn1)n2C1CCCC1
Outgoing: 214 to 219 °C

====

Reported values of melting point for individual entries

Use these answered entries as a reference point.
Incoming: What measured melting point goes with CC(NS(=O)(=O)c1cnc(-c2c(C#N)c3ccc(OC(F)F)cc3n2C2CCC2)nc1)C(F)(F)F (stereo not shown) ?
Outgoing: 227 to 229 °C

Incoming: Moving on to C[C@H](NS(=O)(=O)c1cnc(-c2c(C#N)c3cc(F)ccc3n2C2CCCC2)nc1)C1CC1
Outgoing: 184 to 186 °C

***
Incoming: What measured melting point goes with C[C@H](NS(=O)(=O)c1cnc(-c2c(C#N)c3cc(Cl)ccc3n2C2CCCC2)nc1)C(F)(F)F ?
Outgoing: 243 to 249 °C

Incoming: Moving on to CCc1cc2c(cc1F)c(C(N)=O)c(-c1ccc(S(=O)(=O)NC(C)(C)C(F)(F)F)cn1)n2-c1ncccn1
Outgoing: 261 to 269 °C

Incoming: Moving on to C[C@H](NS(=O)(=O)c1cnc(-c2c(C#N)c3ccc(CC(F)F)cc3n2C2CCC2)nc1)C1CC1
Outgoing: 168 to 175 °C

Incoming: Moving on to CC(C)S(=O)(=O)Nc1ccc(-c2c(C#N)c3ccc(C4CC4)cc3n2C2CCC2)cn1
Outgoing: 226 to 228 °C

Incoming: Moving on to Cc1ccc2c(c1)c(C#N)c(-c1ncc(S(=O)(=O)N[C@@H](C)C(F)(F)F)cn1)n2C(C)C
Outgoing: 195 to 198 °C

Incoming: Moving on to Cc1ccc2c(c1)c(C#N)c(-c1ncc(S(=O)(=O)N[C@@H](C)C3CC3)cn1)n2C1CCCC1
Outgoing: 168 to 171 °C

Incoming: Moving on to C[C@H](NS(=O)(=O)c1ccc(-c2c(C#N)c3ccc(C(F)F)cc3n2C2CCC2)nc1)C(F)(F)F
Outgoing: 198 to 207 °C

Incoming: Moving on to CC(C)NS(=O)(=O)c1ccc(-c2c(C#N)c3ccc(OC(F)F)cc3n2C(C)C)nc1
Outgoing: 157 to 159 °C

Incoming: Moving on to Cc1ccc2cc(-c3ccc(S(=O)(=O)NC(CF)CF)cn3)n(C3CCC3)c2c1
Outgoing: 137 to 139 °C

Incoming: Moving on to CC(C)c1ccc2c(C#N)c(-c3ccc(S(=O)(=O)NC(CF)CF)cn3)n(C3CCC3)c2c1
Outgoing: 135 to 140 °C

Incoming: Moving on to C[C@H](NS(=O)(=O)c1cnc(-c2c(C#N)c3ccc(OC(F)F)cc3n2C2CCCCC2)nc1)C1CC1
Outgoing: 150 to 152 °C

Incoming: Moving on to Cc1cc2c(C#N)c(-c3ccc(S(=O)(=O)NC(CF)CF)cn3)n(C3CCCC3)c2cc1Cl
Outgoing: 217.5 to 218 °C

Incoming: Moving on to Cc1cc2c(cc1F)c(C#N)c(-c1ccc(S(=O)(=O)N[C@@H](C)C(F)(F)F)cn1)n2-c1cnccn1
Outgoing: 220 to 223 °C

Incoming: Moving on to CCc1cc2c(cc1F)c(C#N)c(-c1ccc(S(=O)(=O)N[C@@H](C)C(F)(F)F)cn1)n2-c1cc(C)ccn1
Outgoing: 188 to 190 °C

Incoming: Moving on to Cc1cc2c(cc1Cl)c(C#N)c(-c1ccc(S(=O)(=O)N[C@@H](C)C(F)(F)F)cn1)n2-c1ncccn1
Outgoing: 210 to 212 °C

Incoming: Moving on to CC(C)n1c(-c2ccc(S(=O)(=O)NC(CF)CF)cn2)c(C#N)c2cc(F)ccc21
Outgoing: 168 to 170 °C
